Molecular target: T1, human folate receptor beta (FOLR2), extracellular domain, recombinant (human, UniProt P14207 17-228, limits assumed)
T1 construct: extracellular domain; Bought protein; also called human FOLR2
T1 sequence (P14207 17-228 limits assumed): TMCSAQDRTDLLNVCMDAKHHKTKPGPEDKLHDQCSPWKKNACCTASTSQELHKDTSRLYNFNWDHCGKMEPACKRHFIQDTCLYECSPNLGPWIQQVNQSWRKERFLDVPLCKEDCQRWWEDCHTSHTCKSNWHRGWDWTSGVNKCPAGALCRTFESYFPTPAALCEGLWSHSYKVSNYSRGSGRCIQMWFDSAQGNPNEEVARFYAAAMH
Test: ELISA, coated recombinant protein, HA-tagged VHH in bacterial extract
result type: binding result

binder	result type	result value
HA-tagged variant of VHH A4 (VHH, Used as VHH-containing bacterial (periplasmic) extract in ELISA; also called A4 HA-tag) VHH: QVQLQESGGGLARAGGSLRLSCAASGRAFSSTYAMGWFRQAPGKEREFVADINWSEGSPMYIDSVKDRFTISRDNARNSLYLQMNSLKSEDTAVYYCAARRFGQGYEYWGQGTQVTVSS	binding result	no binding
HA-tagged variant of VHH A5 (VHH, Used as VHH-containing bacterial (periplasmic) extract in ELISA; also called A5 HA-tag) VHH: QVQLQESGGGLVQAGGSLRLSCGVSGNIFSMNLMGWYRQPPGKEREWVALITKDGSTNYEDSVKGRFTISRDNAKNTVSLQMNSLKPEDTAVYYCNAQDGSGWIRAWGWDWGQGTQVTVSS	binding result	no binding
